This collection of values is drawn from the nanobody polyreactivity screen of Harvey et al. (2022).

Experiment: yeast display, Sf9 membrane polyspecificity reagent, FACS + sequencing; frameworks hold sequencing errors
RESULT_TYPE: polyreactivity (PSR sort gate)

BIOPOLYMER_SEQUENCE	TEST_VALUE
QVQLVESGGGLVQAGGSLRLSCAASGFIFYINAMGWYRQAPGKERELVAAINWRTGSTYYADSVKGRFTISRDNAKNTVYLLMNSLKPEDTAVYYCAAYGYWRRADTEFDYWGQGTQVTVSS	low polyreactivity
QVQLEESGGGLVQAGGSLRLSCAASALTIEYNAKGSYRQAPAKERELVATISWSDSTRYADSVKGRLTISRDNAKSTVYLQMNSLKPEYTAVYDSNADVYWAWWEFDYWGQGTQVTVSS	low polyreactivity
QVQLQESGGGLVQAGGSLRLSCAASGTISVHASMGWYRQAPGKERELVAGITDGANTYYADSVKGRFTISRDNSKNTVYLQMNSLKPEDTAVYYCAAYYGTEVHFTYWGQGTQVTVSS	low polyreactivity

====

Assay: yeast display, Sf9 membrane polyspecificity reagent, FACS + sequencing; frameworks hold sequencing errors

BIOPOLYMER_SEQUENCE	polyreactivity (PSR sort gate)
QVQLVESGGGLVQAGGSLRLSCAASGSIFVGYDMGWYRQAPGKERELVASINGGDSTNYADSVKGRFTISRDNAKNTVYLQMNSLKPEDTAVYYCAKDVTYTDEYDYWGQGTQVTVSS	low polyreactivity
QVQLVESGGGLVQAGGSLRLSCAASGRTFRPYAMGWYRQAPGKERELVAAISYRGGITNYADSVKGRFTISRDNAKNTVYLQMNSLKPEDTAVYYCNRYAIWVSRFSDLDYWGQGTQVTVSS	low polyreactivity

====

Experiment: yeast display, Sf9 membrane polyspecificity reagent, FACS + sequencing; frameworks hold sequencing errors
RESULT_TYPE: polyreactivity (PSR sort gate)

BIOPOLYMER_SEQUENCE	polyreactivity (PSR sort gate)
QVQLVESGGGLVQAGGSLRLSCAASGSTFRYYAMGWYRQAPGKERELVAGICSGGTTKYADSVKGRFTISRDNAKNTVYLQMNSLKPEDSAVYYCAARFRRTRVTYYYWGQGTQVTVSS	high polyreactivity
QDQLVESGGGLVQAGGSLRLSCAASGNIFCYYVMGWYRQAPGKERELVAAITWSGGTTNYADSVKGRFTISRDNAKNTVYLQMNSLKPDDTAVYDCATDRYAYKLYDYWGQGTQVTVSS	low polyreactivity
QVQLVESGGGLVQAGGSLRLSCAASGSTFTLYAMGWSRPAPGKERELVATISWNGGRTYYADSVKGRFTISRDNAKNTVYLQMNSLKPEDTAVYYCAADTYDADYDYWGQGTQVTVSS	high polyreactivity
QVQLVESGGGLVQAGGSLRLSCAASGRIFTGYAMGWYRQAPGKERELVAVISSSTDRTYSADSVKGRFTISRDNAKNTVYFQMNSLKPEDTAVYYCAARPYRHKSRRYDYWGHGTQVTVSS	high polyreactivity
QVQLVESGGGLVQAGGRLRLSCAASGSIFDIYAMGWYRQAPGKERELVASIRRRGGSTYYADSVKGRFTISRDNAKNTVYLQKNSLKPEDTAVYYSNARRVWLRTTGTNWPERGYWGQGTQVTVSS	high polyreactivity
QVQLVESGGGLVQAGGSLSLSCDASGRIIHSYAMGWYRQEPGKERELVAAISWSGTSTYYADSVKGRFTISRDNAKNTVYLQMNSLKPEDTEVYYCAARGRYVFDGYRMYFWGQGSQVTVSS	high polyreactivity
QVHLVESGGGLVQAGGSLRLSCAASGRTFVYYAMGWYRQAPGKERELVAAITSVGSTYYADSVKGRFTISRDNAKNTVYLQMNSLKPEDTAVYYCAKDTWAYPYYWPYDDYWGQGTQVTVSS	low polyreactivity
QVQLVESGGGLVQAVGSLRLSCAASGRIIVRNAMGWYRQAPGKERELVAAISRSGGSTYYADSVKGRFTLSRDNAKNTVYLQMNSLIPEYTAVYYCAADYPITYTSKFNYWGHGTQVTVSS	high polyreactivity
QVQLVESGGGLVQAGGSLRLSCAASGSTFLEYARGWSRQAPGKERELVATITGGGGTNYADSVKGRFTISRDNAKNTVYLQMNSLKPEETAVYYCAADYGGAYEYGYWGQGTQVTVSS	low polyreactivity
QVQLVESGGGLVQAGGSLRLSCAASGYIFRFNAMGWYRQAPGKERELVAAISRSGGRTYYADSVKGRFTISRDNAKNTVYLQMNSLKPEDTAVYYCAAVRYKGGGNQPYGYWGQGTQVTVSS	high polyreactivity

## Task Name the reported polyreactivity (PSR sort gate) value associated with the sequence QVQLVESGGGLVQAGGSLRLSCAASGSTIGGYAMGWYRQAPGKERELVAAITRSGGRTYYADSVKGRFTISRDNAKKTVYLQMNSLKPEDTAVYFCATLVTNARYDSWGQGTQVTVSS
## Result high polyreactivity

## Task Name the reported polyreactivity (PSR sort gate) value associated with the sequence QVQLVESGGGLVQAGGSLRLSCAASGRTFWRNAMGWYRQAPGKERELVAVISVRGSSTSYADSVKGRFTISRDNAKNTVYLQMNSLKPEDTAVYYCNKASRTYGTGYDYWGQGTQVTVSS
## Result high polyreactivity

## Task Name the reported polyreactivity (PSR sort gate) value associated with the sequence QVQLQESGGGLVQAGGSLRLSCAASGDILEADDMGWYRQAPGKERELVASITDGGSTNCADSMKGRSTICRDNAKITVYVQMNRLKLEDTAVYYCAGIAYPDVPTYFDYDSDYFYWGQGTLVTVSS
## Result high polyreactivity

## Task Name the reported polyreactivity (PSR sort gate) value associated with the sequence QVQLVESGGGLVQAGGSLRLSCAASGSTFDLYAMGWYRQATGKERELVAAISRSGGSTYYADSVKGRFTISRDNEKNTVYLQMNSLKPDDTAVYYCNARWPLGVSRGGMGYWGQGTQVTVSS
## Result high polyreactivity
